# Tested on: tet operator sequence
# PROTOCOL: β-galactosidase activity of a tetracycline-regulated promoter in transformed E. coli with revTetR, in the presence and absence of anhydrotetracycline (atc)
# Type: cell-based, Escherichia coli
# STATED_CONDITIONS: RevTetR isolate cultured in the absence of anhydrotetracycline (ATC)
molecules and their reported β-Galactosidase Activity, Cultured Without ATC

MOLECULE: TetRrev96/99-10: revTetR(BD) G96N V99P (protein, Modified tetracycline repressor, revTetR(BD) G96N V99P) MSRLDKSKVINSALELLNEVGIEGLTTRKLAQKLGVEQPTLYWHVKNKRALLDALAVEILARHHDYSLPAAGESWQSFLRNNAMSFRRALLRYRDNAKPHLGTRPDEKQYDTVETQLRFMTENGFSLRDGLYAISAVSHFTLGAVLEQQEHTAALTDRPAAPDENLPPLLREALQIMDSDDGEQAFLHGLESLIRGFEVQLTALLQIV
VAL: 106.137

Entry under review: TetRrev96/99-6: revTetR(BD) G96N V99Q (protein, Modified tetracycline repressor, revTetR(BD) G96N V99Q) MSRLDKSKVINSALELLNEVGIEGLTTRKLAQKLGVEQPTLYWHVKNKRALLDALAVEILARHHDYSLPAAGESWQSFLRNNAMSFRRALLRYRDNAKQHLGTRPDEKQYDTVETQLRFMTENGFSLRDGLYAISAVSHFTLGAVLEQQEHTAALTDRPAAPDENLPPLLREALQIMDSDDGEQAFLHGLESLIRGFEVQLTALLQIV . Reported β-Galactosidase Activity, Cultured Without ATC?
103.602

Entry under review: TetRrevAD2/1: revTetR(BD) G21G L51L D53Y L55L A56P A61E (protein, Modified tetracycline repressor, revTetR(BD) G21G L51L D53Y L55L A56P A61E) MSRLDKSKVINSALELLNGVGIEGLTTRKLAQKLGVEQPTLYWHVKNKRALLYALPVEILERHHDYSLPAAGESWQSFLRNNAMSFRRALLRYRDGAKVHLGTRPDEKQYDTVETQLRFMTENGFSLRDGLYAISAVSHFTLGAVLEQQEHTAALTDRPAAPDENLPPLLREALQIMDSDDGEQAFLHGLESLIRGFEVQLTALLQIV . Reported β-Galactosidase Activity, Cultured Without ATC?
34.2242

Entry under review: TetRrev6-33: revTetR(BD) A97T K98R V99G (protein, Modified tetracycline repressor, revTetR(BD) A97T K98R V99G) MSRLDKSKVINSALELLNEVGIEGLTTRKLAQKLGVEQPTLYWHVKNKRALLDALAVEILARHHDYSLPAAGESWQSFLRNNAMSFRRALLRYRDGTRGHLGTRPDEKQYDTVETQLRFMTENGFSLRDGLYAISAVSHFTLGAVLEQQEHTAALTDRPAAPDENLPPLLREALQIMDSDDGEQAFLHGLESLIRGFEVQLTALLQIV . Reported β-Galactosidase Activity, Cultured Without ATC?
108.964

Entry under review: TetRrevAtc4-7: revTetR(BD) I59R L55L A61E H64N (protein, Modified tetracycline repressor, revTetR(BD) I59R L55L A61E H64N) MSRLDKSKVINSALELLNEVGIEGLTTRKLAQKLGVEQPTLYWHVKNKRALLDALAVERLERHNDYSLPAAGESWQSFLRNNAMSFRRALLRYRDGAKVHLGTRPDEKQYDTVETQLRFMTENGFSLRDGLYAISAVSHFTLGAVLEQQEHTAALTDRPAAPDENLPPLLREALQIMDSDDGEQAFLHGLESLIRGFEVQLTALLQIV . Reported β-Galactosidase Activity, Cultured Without ATC?
84.416

Entry under review: TetRrev28/49: revTetR(BD) N18Y V20D I22T (protein, Modified tetracycline repressor, revTetR(BD) N18Y V20D I22T) MSRLDKSKVINSALELLYDVGTEGLTTRKLAQKLGVEQPTLYWHVKNKRALLDALAVEILARHHDYSLPAAGESWQSFLRNNAMSFRRALLRYRDGAKVHLGTRPDEKQYDTVETQLRFMTENGFSLRDGLYAISAVSHFTLGAVLEQQEHTAALTDRPAAPDENLPPLLREALQIMDSDDGEQAFLHGLESLIRGFEVQLTALLQIV . Reported β-Galactosidase Activity, Cultured Without ATC?
62.5137

Entry under review: TetRrevAtc4-40: revTetR(BD) A56P L60L A61G R62R (protein, Modified tetracycline repressor, revTetR(BD) A56P L60L A61G R62R) MSRLDKSKVINSALELLNEVGIEGLTTRKLAQKLGVEQPTLYWHVKNKRALLDALPVEILGRHHDYSLPAAGESWQSFLRNNAMSFRRALLRYRDGAKVHLGTRPDEKQYDTVETQLRFMTENGFSLRDGLYAISAVSHFTLGAVLEQQEHTAALTDRPAAPDENLPPLLREALQIMDSDDGEQAFLHGLESLIRGFEVQLTALLQIV . Reported β-Galactosidase Activity, Cultured Without ATC?
56.743

Entry under review: TetRrevAtc4-9b: revTetR(BD) A56P V57L E58V L60L (protein, Modified tetracycline repressor, revTetR(BD) A56P V57L E58V L60L) MSRLDKSKVINSALELLNEVGIEGLTTRKLAQKLGVEQPTLYWHVKNKRALLDALPLVILARHHDYSLPAAGESWQSFLRNNAMSFRRALLRYRDGAKVHLGTRPDEKQYDTVETQLRFMTENGFSLRDGLYAISAVSHFTLGAVLEQQEHTAALTDRPAAPDENLPPLLREALQIMDSDDGEQAFLHGLESLIRGFEVQLTALLQIV . Reported β-Galactosidase Activity, Cultured Without ATC?
107.982

Entry under review: TetRrev28/23: revTetR(BD) A13A L14S N18K E23V (protein, Modified tetracycline repressor, revTetR(BD) A13A L14S N18K E23V) MSRLDKSKVINSASELLKEVGIVGLTTRKLAQKLGVEQPTLYWHVKNKRALLDALAVEILARHHDYSLPAAGESWQSFLRNNAMSFRRALLRYRDGAKVHLGTRPDEKQYDTVETQLRFMTENGFSLRDGLYAISAVSHFTLGAVLEQQEHTAALTDRPAAPDENLPPLLREALQIMDSDDGEQAFLHGLESLIRGFEVQLTALLQIV . Reported β-Galactosidase Activity, Cultured Without ATC?
92.2055
